Here, each record is paired with measured melting point data.

# count of solved cases: 6
> print(dat)
                                   molecule  recorded.value
1  Cc1[nH]c2ccccc2c1CCCN1CCC(c2noc3cc(Cl)ccc23)CC1   108 to 110 °C
2  COc1ccccc1C(=O)N1CCCC(=O)c2ccc(Cl)cc2CCC1=O          179 °C
3  Cc1c(N2CCC(N)C(C)(C)C2)c(F)cc2c(=O)c(C(=O)O)cn(C3CC3)c12 (stereo not given)   195 to 198 °C
4         Clc1nc(NCc2cccc(I)c2)c2[nH]cnc2n1   222 to 224 °C
5  CC(=O)Nc1cccc(-c2cnc3c(c2)nc(-c2cccnc2N)n3-c2ccc(CNC(=O)c3ccccc3)cc2)c1     76 to 81 °C
6  CC1(C)CN=C2C(=O)c3cc(S(=O)(=O)N4CCc5ccccc54)ccc3N2C1   170 to 171 °C

In: Look up melting point: `O=c1c2c([nH]n1-c1c(F)cc(Cl)c3nc(Cl)sc13)CCCC2`
Out: 191 to 197 °C

In: Look up melting point: `Cc1ccc(Cl)cc1-n1c(CF)nc2ccc([N+](=O)[O-])cc2c1=O`
Out: 191 to 192 °C

In: Look up melting point: `C=C(C)C(=O)NC(C)C`
Out: 89 °C

In: Look up melting point: `Nc1sc2c(c1C(=O)c1ccccc1)CCN(CCc1ccc([N+](=O)[O-])cc1)C2`
Out: 89 to 91 °C

These data points were gathered from a melting point compilation (Tetko et al.; mined from patent text by program, amines drawn as free bases though some values may be those of a salt).
